test system: 786-0 renal; assay: NCI-60 one-dose screen, 48 h (100 = growth as untreated, 0 = no growth, -100 = all killed); settings: 10 µM unless noted
Compounds without any hit were thinned out: in the full panel of roughly 83,000, 20% have a hit.
Please use Condition met whenever growth is not below 70%, and Condition not met whenever it is.

O=C(Cc1ccc(F)c(Cl)c1)Nc1cc(C2(C(F)(F)F)CC2)nn1CC1CCCCC1 :: Condition not met
COc1c(N2CC3CCCN(C(C)=O)C3C2)c(F)cc2c(=O)c(C(=O)N[C@H]3C(O)[C@@H](O)C(CO)O[C@H]3O)cn(C3CC3)c12 (stereo partly drawn) :: Condition met
Brc1ccc2[nH]cc(-c3nc(-c4c[nH]c5ccncc45)cs3)c2c1 :: Condition not met

Proceed to the following item.
Check the entry CC(=O)OC[C@H]1OC(Sc2sc(C(=O)c3ccc(Br)cc3)c(N)c2-c2nc3ccccc3s2)[C@H](OC(C)=O)[C@@H](OC(C)=O)[C@H]1OC(C)=O (stereo partly drawn) : does growth equal or exceed 70%? Condition met

###

This section presents molecules with their documented growth values.
tested on: NCI/ADR-RES ovarian; assay: NCI-60 one-dose screen, 48 h (100 = growth as untreated, 0 = no growth, -100 = all killed); settings: 10 µM unless noted
This is part of a sample that, as a whole, favours compounds with a hit. Of some 83,000 tested, about 20% had one in any assay. Activity calls are given as the source filed them. Rule for the calls: active = growth percent below 10; inactive = the rest.

COc1cccc(Cc2cc(-c3ccccc3)nn(CC(=O)c3ccccc3)c2=O)c1 :: 57.2% (inactive)
OC(COc1ccccc1)CN1CCN(c2ccc(Cl)cc2)CC1 (stereo unspecified) :: 101% (inactive)
FC(F)(F)c1cc(Nc2ccc3c(OCCCN4CCOCC4)cccc3n2)ccc1Cl :: 56.2% (inactive)

Need growth of COc1ccc(C2NC(=O)C(C#N)c3c2sc2c(F)cccc32)c(OC)c1 (stereo unspecified) , thanks. 16.7% (inactive)

growth lookup needed for O=C1NC(=O)C(Cn2cnc3ccccc32)N1 (stereo unspecified) , thanks. 101% (inactive)

Fill in: growth of COc1cccc(Cc2nn3cc(-c4ccccc4)nc3s2)c1 is ___ 101% (inactive)

###

// growth lookup, one value per entry
system: UO-31 renal; experiment: NCI-60 one-dose screen, 48 h (100 = growth as untreated, 0 = no growth, -100 = all killed); details: 10 µM unless noted
Compounds without any hit were thinned out: in the full panel of roughly 83,000, 20% have a hit. Calls of active or inactive are those of the source. Rule for the calls: active = growth percent below 10; inactive = the rest.

Worked examples, 5 molecules total:
Nc1nn(C(=O)Nc2ccc(Cc3ccccc3)cc2)c2ccc(Cl)cc12 :: 43.5% (inactive)
CCOC(=O)Nc1ccc(-c2nc(-c3cccc(OC)c3)c(-c3ccnc(Br)c3)[nH]2)cc1 :: 16.3% (inactive)
O=C(CCCCCCSc1nc(-c2ccccc2)cc(-c2ccccc2)n1)NO :: 22.3% (inactive)
C#Cc1cccc(NC(=O)Nc2ccccc2NC(=O)CCl)c1 :: -97.7% [8.25 µM] (active)
COc1cc(/C=C2\C(=O)Nc3ccc(Br)cc32)cc(OC)c1OC :: 54.7% (inactive)

Lab request: please report growth under test system UO-31 renal for C[C@H](C(=O)Nc1ccc(S(N)(=O)=O)cc1)S(=O)(=O)c1ccccc1 85.8% (inactive)

Tell me reported growth for OC(COc1ccccc1)CN1CCN(c2ccc(Cl)cc2)CC1 (stereo unspecified) , tested with UO-31 renal. 78.8% (inactive)

Request - read-out growth | tested on UO-31 renal | molecule CC1(C)C2CC1C1(/C=N/NC(N)=S)C(C2)C(C#N)(C#N)C1(C#N)C#N (stereo unspecified) 51.4% (inactive)

###

Items are presented alongside their recorded growth.
tested on: SNB-75 CNS; experiment: NCI-60 one-dose screen, 48 h (100 = growth as untreated, 0 = no growth, -100 = all killed); conditions: 10 µM unless noted
The panel holds about 83,000 compounds, 20% with a hit somewhere; the sample as a whole holds those more often.
The figure you give is taken to be in %; do not add the unit.

# annotated cases, reported growth shown
CN1CCN(c2ccc(-c3cnc4c(-c5csc6ccccc56)cnn4c3)cc2)CC1 :: -54.4
CCCCCCCNC(=O)CCCNc1ncnc2c1ncn2-c1cccc(C(C)O)c1 (stereo not given) :: 104
Cc1nn(-c2ccccc2)c2c1N=c1s/c(=C\c3ccc(C(F)(F)F)cc3)c(=O)n1CN2 :: 78
COc1ccc(-c2nc3sc(-c4ccc(Cl)cc4)cn3n2)cc1 :: -1.66
COc1c(N2CC3CCCN(C(C)=O)C3C2)c(F)cc2c(=O)c(C(=O)N[C@H]3C(O)[C@@H](O)C(CO)O[C@H]3O)cn(C3CC3)c12 (stereo not given in full) :: 100

Given the compound CCOC(=O)c1[nH]c(C)c(C(=O)OCc2ccccc2C#N)c1C , what is its reported growth? 0.16

Which growth is listed for Cn1cc(-c2cc3ncnc(Nc4ccc(CC(=O)Nc5cc(C(C)(C)C)on5)cc4)c3s2)cn1 ? 54

Can you share its growth? I mean this compound: COc1cccc2c(=O)c3c(sc12)c(NCCCN)nc1ccccc13 58.2

Param item = N#Cc1c(Nc2cccc(Cl)c2)sc(C(=O)c2cc3cc(Cl)ccc3o2)c1N ; retrieve measured growth. 101

Param item = Oc1ccc(-c2nc3ccc4[nH]ncc4c3c3c2CCCC3)c2cccnc12 ; retrieve measured growth. -23.1

###

system: HS 578T breast; assay: NCI-60 one-dose screen, 48 h (100 = growth as untreated, 0 = no growth, -100 = all killed); conditions: 10 µM unless noted
About 83,000 compounds went through this panel and 20% of them were active in at least one assay; those are over-represented in the sample as a whole.
experimental.endpoint: growth (%)
Your answer should be a plain number; it is taken to be in %.

I'm curious: which growth was measured for C(=N/Nc1ncnc2nc[nH]c12)/c1ccccn1 tested on HS 578T breast? 64.1

Please provide the recorded growth for CC([C@H]1CCC2C3CCC4C[C@@H](NC=O)CC[C@]4(C)C3CC[C@@]21C)N(C)C (stereo not given in full) , tested on HS 578T breast. -2.92

# get_value(readout= growth, system= HS 578T breast) for O=C(/C=C/c1sc(Cl)nc1Cl)c1ccc(F)cc1 86.8

Kindly state the measured growth obtained for O=C(N/N=C/c1ccc(Cl)cc1)c1ccc(C(F)(F)F)nc1Nc1cccc(C(F)(F)F)c1 with HS 578T breast. 4.32

GET /values?readout=growth&system=HS 578T breast&item= O=C1/C(=C/c2ccccc2[N+](=O)[O-])Oc2ccc(O)c(O)c21 21.1

###

Reported growth values for the following compounds.
tested on: MALME-3M melanoma; assay: NCI-60 one-dose screen, 48 h (100 = growth as untreated, 0 = no growth, -100 = all killed); conditions: 10 µM unless noted
About 83,000 compounds went through this panel and 20% of them were active in at least one assay; those are over-represented in the sample as a whole.
Please give a number only; it is taken to be in %.

The following compounds have reported results that may help.
CC([C@H]1CCC2C3CCC4C[C@@H](NC=O)CC[C@]4(C)C3CC[C@@]21C)N(C)C (stereo partly specified) :: -57.6
COc1cc(CNS(=O)(=O)c2ccc(C)cc2)ccc1OCc1cn(-c2ccccc2)nn1 :: 99.7
COc1ccc2[nH]c(-c3ccccc3)c(/C=C(\C#N)S(=O)(=O)c3ccccc3)c2c1 :: 47.7
CSc1ncccc1C(=O)OCC(=O)Nc1oc(C)c2c(C)n[nH]c(=O)c12 :: 106
c1cc(NCCc2ccncc2)nc(-n2cnc3ccccc32)c1 :: 103

Return reported growth; argument: NCCNc1nc2ccccc2c2c(=O)c3cc(F)ccc3sc12 96.2

Dear colleague, I am looking for the recorded growth of the following compound: CCCCn1c(=O)c(-c2cc(-c3ccc(Cl)cc3)nc(-c3ccc(Cl)cc3)c2)cc2cc(C)ccc21 105

Reported growth for NCCCNc1nc2ccccc2c2c(=O)c3cc(OC(F)(F)F)ccc3sc12 : what is it? 80.9

###

test system: HCC-2998 colon; test: NCI-60 one-dose screen, 48 h (100 = growth as untreated, 0 = no growth, -100 = all killed); conditions: 10 µM unless noted
This is part of a sample that, as a whole, favours compounds with a hit. Of some 83,000 tested, about 20% had one in any assay.
experimental.endpoint: growth (%)
API: value field is a number in %; no unit string.

Worked set:
O=c1c2cc(F)cc(Cl)c2sc2c(NCCCNCCO)nc3ccccc3c12 :: 60.9
COc1cc(C(=O)c2cnc(-c3cccc4[nH]ccc34)[nH]2)cc(OC)c1OC :: 20.9
CN(C)CCN1CCN(c2ncccc2C2Nc3ccccc3-n3cccc32)CC1 (centres undefined) :: 114
Cc1cccc2c(=O)c3c(sc12)c(NCc1ccccc1)nc1ccccc13 :: 90.3
C[C@]12CC[C@@H]3c4cc(OC(F)F)c(OS(N)(=O)=O)cc4CC[C@H]3[C@@H]1CC[C@@H]2OS(N)(=O)=O :: 74.1

Look up growth with HCC-2998 colon for this molecule: COc1cc(-c2nc3sccn3c2-c2ccnc(NCCCNS(=O)(=O)c3ccc(F)cc3)n2)ccc1F 95.5

Quick check: growth on HCC-2998 colon, item COc1cc(CCC[P+](c2ccccc2)(c2ccccc2)c2ccccc2)c(OC)c2c1OCO2 ? 26.7

# get_value(readout= growth, system= HCC-2998 colon) for CCOC(=O)c1c(C)nc2c(c1N)CC(=O)N2Cc1ccc(F)cc1 103

What growth appears in the records for this molecule with HCC-2998 colon? FC(F)(F)c1cc(Nc2ccc3c(OCCCN4CCOCC4)cccc3n2)ccc1Cl 34.6
